# TARGET OR TEST SYSTEM: Carbonic anhydrase 1 (Homo sapiens)
# Sequence (P00915 whole entry): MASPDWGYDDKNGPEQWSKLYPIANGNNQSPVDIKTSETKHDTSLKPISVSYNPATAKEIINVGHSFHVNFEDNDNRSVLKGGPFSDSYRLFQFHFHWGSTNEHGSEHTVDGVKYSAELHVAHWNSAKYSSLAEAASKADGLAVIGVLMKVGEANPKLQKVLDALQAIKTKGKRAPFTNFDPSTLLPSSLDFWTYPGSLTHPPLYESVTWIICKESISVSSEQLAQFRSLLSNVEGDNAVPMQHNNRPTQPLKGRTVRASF
# ASSAY COMMENT: Binding affinity to recombinant human CA1 by DSF-based fluorescence thermal shift assay
MEASURED ATTRIBUTE: Kd (µM)

a = Cc1cc(NCC(CC(=O)O)c2n[nH]c(=S)n2-c2ccccc2)c(Cl)c(C)c1S(N)(=O)=O (stereo not drawn)
b = Cc1cc(N2CC(c3n[nH]c(=S)o3)CC2=O)cc(C)c1S(N)(=O)=O (stereo not drawn)
c = NS(=O)(=O)c1ccc(NC(=O)C2CC(=O)N(c3cccc(Br)c3)C2)cc1 (stereo not drawn)
QUERY: List these items ordered by Kd, big to small. Put the labels in the order asked and list them.
RESULT: a, b, c
(a: 40 µM, b: 10 µM, c: 0.31 µM)
